Reference source for all entries: patent US12103915B2

# Target Desc: TEAD4 (Homo sapiens, UniProt Q15561)
# Sequence (Q15561 whole entry, species assumed): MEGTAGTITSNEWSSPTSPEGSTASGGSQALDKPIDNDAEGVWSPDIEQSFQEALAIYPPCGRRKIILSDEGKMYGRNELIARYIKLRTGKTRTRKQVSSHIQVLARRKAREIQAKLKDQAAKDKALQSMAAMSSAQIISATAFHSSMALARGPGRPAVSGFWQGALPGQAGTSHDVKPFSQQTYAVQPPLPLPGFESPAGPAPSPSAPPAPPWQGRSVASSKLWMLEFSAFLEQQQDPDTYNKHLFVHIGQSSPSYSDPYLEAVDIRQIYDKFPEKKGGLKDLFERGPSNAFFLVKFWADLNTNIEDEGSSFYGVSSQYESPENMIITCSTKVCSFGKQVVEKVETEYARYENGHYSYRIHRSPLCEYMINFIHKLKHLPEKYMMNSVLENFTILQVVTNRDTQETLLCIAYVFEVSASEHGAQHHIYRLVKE
# Test Protocol: Thermal shift assay TEAD4
# Assay type: binding
# Experimental: Example B: Thermal Shift Assay 1) Prepare a fresh dilution of Protein Thermal Shift™ Dye (Applied Biosystems, 1000×) to 8× by […]. 2) To ensure the same DMSO concentration, the compounds were diluted as follows: Prepare 10 mM stock solution of compounds; The final DMSO concentration was 0.1% 10 μM: Diluting stock solution to 100 μM by using PBS. 1 μM: Diluting stock solution to 1 mM by using DMSO, then dilute to 10 μM by using PBS. […]
Assay Readout: TEAD4 ΔTm (°C)

Recorded TEAD4 ΔTm, per entry:
{"columns": ["Compound", "Result Units", "Numeric Result"],
 "data": [
  ["CNC(=O)[C@@H]1CC1c1cc(Oc2ccc(C(F)(F)F)cc2)cc2cn(C)nc12 (mixture of isomers)", "°C", 10.3],
  ["Cn1cc2cc(Oc3ccc(C(F)(F)F)cc3)cc(C3C[C@H]3C(=O)N3C4COCC3CC(O)C4)c2n1 (single isomer, unassigned) [Example 116b]", "°C", 7.1]
]}

A = Cn1cc2cc(Oc3ccc(C(F)(F)F)cc3)cc([C@@H]3C[C@H]3C(=O)N3CC4CC3CN4)c2n1 (single isomer, unassigned)
B = Cn1cc2cc(Oc3ccc(C(F)(F)F)c(F)c3)cc([C@@H]3C[C@H]3C(=O)N3CC(O)C3)c2n1 (single isomer, unassigned)
C = CC(NC(=O)[C@@H]1C[C@H]1c1cc(-c2ccc(C(F)(F)F)cc2)cc2c1cnn2C)c1ccccn1 (mixture of isomers)
D = CN(C#N)C(=O)[C@@H]1C[C@H]1c1cc(Oc2ccc(C(F)(F)F)cc2)cc2cn(C)nc12 (single isomer, unassigned)
Q) Put the compounds in ascending order of TEAD4 ΔTm. Field: ranking. Enter the labels in the order requested.
A) C, A, D, B
(C: 2.4 °C, A: 4.9 °C, D: 7.7 °C, B: 13.7 °C)
